Measured target: unphosphorylated VEGF-R2Δ50 (FLVK) (Homo sapiens, UniProt P35968, DEL940-989/E990V)
Construct: VEGF-R2Δ50 contains residues 806–939 and 990–1171; made in house; host or cells: baculovirus/insect cell system
Sequence (P35968 with tags, fused parts or gaps DEL940-989/E990V limits assumed): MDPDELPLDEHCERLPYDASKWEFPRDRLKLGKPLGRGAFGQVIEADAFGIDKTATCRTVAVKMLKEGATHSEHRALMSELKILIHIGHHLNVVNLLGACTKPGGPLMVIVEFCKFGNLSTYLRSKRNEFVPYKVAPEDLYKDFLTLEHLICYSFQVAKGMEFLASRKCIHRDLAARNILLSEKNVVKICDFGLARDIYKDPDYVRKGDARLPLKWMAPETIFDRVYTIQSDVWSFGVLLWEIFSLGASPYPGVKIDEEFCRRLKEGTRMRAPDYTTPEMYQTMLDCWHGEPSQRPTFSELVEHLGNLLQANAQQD
Experiment description: VEGF-R2 coupled spectrophotometric assay, unphosphorylated VEGF-R2Δ50 (FLVK)
Type: biochemical
Test context: 50 nM compound; unphosphorylated VEGF-R2Δ50; read-out: FLVK (% inh @ 50 nM)
Value kind: inhibition at 0.05 µM (%)

(I) CNC(=O)c1c(C)oc2cc(Oc3ccnc4ccsc34)ccc12 [Example 99]
(II) Cc1sc2cc(Oc3ccnc4cc(C(=O)N5CCC5)sc34)ccc2c1C(=O)NCC1CC1 [Example 131]
(III) CNC(=O)c1c(C)n(C)c2cc(Oc3ccnc4cc(C(=O)N(C)CCO)sc34)ccc12 [Example 31]
(IV) CNC(=O)c1c(C)sc2cc(Oc3ccnc4cc(CN(C)C)sc34)ccc12 [Example 116]
Exercise: Order required: smallest reported inhibition at 0.05 µM first, largest last, for all compounds above. Answer with the labels in sequence, matching the requested order.
Key: IV, III, I, II
(IV: 4%, III: 25%, I: 66%, II: 96%)

----------
Measured target: unphosphorylated VEGF-R2Δ50 (FLVK) (Homo sapiens, UniProt P35968, DEL940-989/E990V)
Construct: VEGF-R2Δ50 contains residues 806–939 and 990–1171
Experiment description: VEGF-R2 coupled spectrophotometric assay, unphosphorylated VEGF-R2Δ50 (FLVK)
Test context: unphosphorylated VEGF-R2Δ50
pKi: −log10 of the molar value.
Value kind: pKi

(P) CO[C@@H]1CCN(C(=O)c2cc3nccc(Oc4ccc5c(C(=O)NCC6CC6)c(C)sc5c4)c3s2)C1
(Q) CNC(=O)c1c(C)n(C)c2cc(Oc3ccnc4cc(-c5ccncc5)sc34)ccc12
(R) Cc1sc2cc(Oc3ccnc4cc(C(=O)N5CCC[C@H]5CO)sc34)ccc2c1C(=O)NC1CC1
Exercise: Exam item: list the entries in increasing order of pKi. // rank by listing labels in the order requested
Key: Q, R, P
(Q: 8.21, R: 9.39, P: 9.66)

----------
System: Huvec
Experiment description: bFGF Huvec proliferation
Format: cell-based, human
Test context: Homo sapiens, HUVEC
Value kind: IC50 (nM)
Value expressed in nM; do not type the unit.

// below: answered molecules
1. CNC(=O)c1c(C)sc2cc(Oc3ccnc4cc(-c5nc(CO)cs5)sc34)ccc12: 100
2. CO[C@@H]1CCN(C(=O)c2cc3nccc(Oc4ccc5c(C(=O)NCC(C)C)c(C)oc5c4)c3s2)C1: 6040
3. CO[C@@H]1CCN(C(=O)c2cc3nccc(Oc4ccc5c(C(=O)NC6CC6)c(C)oc5c4)c3s2)C1: 5.2
4. CNC(=O)c1c(C)sc2cc(Oc3ccnc4cc(C(=O)N5CCC[C@H]5COC)sc34)ccc12: 3330
5. Cc1c(C(=O)NC2CC2)c2ccc(Oc3ccnc4cc(-c5nccn5C)sc34)cc2n1C: 1900

Here's the next entry for you.
Exercise: Query: IC50; subject: `CCCNC(=O)c1c(C)n(C)c2cc(Oc3ccnc4cc(-c5nccn5C)sc34)ccc12`
Key: 4000

----------
Measured target: PDGFRβ (Homo sapiens)
Construct: expressed in transfected cells; host or cells: porcine aorta endothelial (PAE)-PDGFRβ cells
Sequence (P09619 33-1106): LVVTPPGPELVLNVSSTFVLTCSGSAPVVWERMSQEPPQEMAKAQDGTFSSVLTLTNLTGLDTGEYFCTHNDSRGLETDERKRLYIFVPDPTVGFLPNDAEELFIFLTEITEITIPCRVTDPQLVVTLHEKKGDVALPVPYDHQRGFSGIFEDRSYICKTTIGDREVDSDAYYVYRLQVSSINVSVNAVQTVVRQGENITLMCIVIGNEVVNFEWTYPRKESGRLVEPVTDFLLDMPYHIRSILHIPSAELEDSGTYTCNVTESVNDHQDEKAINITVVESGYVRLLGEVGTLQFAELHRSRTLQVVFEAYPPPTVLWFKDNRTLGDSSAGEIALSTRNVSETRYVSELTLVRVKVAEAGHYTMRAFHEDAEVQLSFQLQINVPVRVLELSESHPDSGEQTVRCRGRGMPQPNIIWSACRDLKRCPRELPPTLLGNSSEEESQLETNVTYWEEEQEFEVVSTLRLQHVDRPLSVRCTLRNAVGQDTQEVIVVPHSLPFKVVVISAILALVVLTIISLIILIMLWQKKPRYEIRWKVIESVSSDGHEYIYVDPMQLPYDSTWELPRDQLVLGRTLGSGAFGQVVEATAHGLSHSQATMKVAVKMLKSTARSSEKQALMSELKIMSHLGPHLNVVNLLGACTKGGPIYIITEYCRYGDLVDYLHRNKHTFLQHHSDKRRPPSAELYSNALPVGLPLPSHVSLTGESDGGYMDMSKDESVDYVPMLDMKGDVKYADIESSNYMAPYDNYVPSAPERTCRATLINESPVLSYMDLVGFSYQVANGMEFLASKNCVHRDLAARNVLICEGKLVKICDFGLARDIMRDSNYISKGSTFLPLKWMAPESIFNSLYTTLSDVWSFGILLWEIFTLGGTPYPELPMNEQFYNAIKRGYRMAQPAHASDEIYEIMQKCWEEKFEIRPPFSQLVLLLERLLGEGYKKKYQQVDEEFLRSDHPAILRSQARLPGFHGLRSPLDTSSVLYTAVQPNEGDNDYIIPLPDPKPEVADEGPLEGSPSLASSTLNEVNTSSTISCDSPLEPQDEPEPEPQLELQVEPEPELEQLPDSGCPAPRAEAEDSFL
Experiment description: PAE-PDGFRβ phosphorylation in PAE-PDGFRB cells assay
Format: cell-based
Test context: PAE cells overexpressing human PDGFRβ, PDGF-BB stimulated; read-out: PAE PDGFR autophos IC50 (nM) AVG
Value kind: IC50 (nM)

Some solved entries appear below for comparison.
1) CNC(=O)c1c(C)sc2cc(Oc3ccnc4cc(C(=O)N5CC(O)C5)sc34)ccc12: 313
2) CNC(=O)c1c(C)n(C)c2cc(Oc3ccnc4cc(-c5ccccn5)sc34)ccc12: 8.9
3) Cc1oc2cc(Oc3ccnc4cc(C(=O)N5CCC[C@H]5CO)sc34)ccc2c1C(=O)NCC(C)C: 17.9
4) CO[C@@H]1CCN(C(=O)c2cc3nccc(Oc4ccc5c(C(=O)NCC6CC6)c(C)sc5c4)c3s2)C1: 179
5) CCc1sc2cc(Oc3ccnc4cc(C(=O)N5CCC[C@H]5COC)sc34)ccc2c1C(=O)NC: 213
6) Cc1oc2cc(Oc3ccnc4ccsc34)ccc2c1C(=O)NCCc1c[nH]c2cc(F)ccc12: 164
7) Cc1oc2cc(Oc3ccnc4ccsc34)ccc2c1C(=O)Nc1ccc(N2CCOCC2)nc1: 49
8) CNC(=O)c1c(C)n(C)c2cc(Oc3ccnc4cc(C(=O)N5CC[C@@H](O)C5)sc34)ccc12: 172

(P) CNC(=O)c1c(C)sc2cc(Oc3ccnc4cc(C(=O)N5CCC[C@H]5COC)sc34)ccc12
(Q) CNC(=O)c1c(C)sc2cc(Oc3ccnc4cc(C(=O)N5CC[C@@H](O)C5)sc34)ccc12
Exercise: Decide: P or Q , by lowest recorded IC50. Identify your pick by its label.
Key: Q
(Q: 255 nM, P: 912 nM)

----------
Measured target: unphosphorylated VEGF-R2Δ50 (FLVK) (Homo sapiens, UniProt P35968, DEL940-989/E990V)
Construct: VEGF-R2Δ50 contains residues 806–939 and 990–1171; made in house; host or cells: baculovirus/insect cell system
Experiment description: VEGF-R2 coupled spectrophotometric assay, unphosphorylated VEGF-R2Δ50 (FLVK)
Type: biochemical
Test context: unphosphorylated VEGF-R2Δ50
Value kind: Ki (nM)

Use these answered entries as a reference point.
1) CNC(=O)c1c(C)sc2cc(Oc3ccnc4cc(-c5nccn5C)sc34)ccc12: 1.02
2) CNC(=O)c1c(C)n(C)c2cc(Oc3ccnc4cc(C(=O)N(C)CCN(C)C)sc34)ccc12: 88.8
3) CNC(=O)c1c(C)n(C)c2cc(Oc3ccnc4cc(-c5nc(C(C)(C)O)co5)sc34)ccc12: 19.7
4) CNC(=O)c1c(C)n(C)c2cc(Oc3ccnc4cc(-c5cccc(CN(C)C)n5)sc34)ccc12: 24.9
5) CO[C@@H]1CCN(C(=O)c2cc3nccc(Oc4ccc5c(C(=O)NCCCO)c(C)sc5c4)c3s2)C1: 2.19
6) CNC(=O)c1c(C)n(C)c2cc(Oc3ccnc4cc(-c5nccn5C)sc34)ccc12: 2.77
7) CNC(=O)c1c(C(F)(F)F)n(C)c2cc(Oc3ccnc4cc(-c5nccn5C)sc34)ccc12: 6.26
8) Cc1oc2cc(Oc3ccnc4ccsc34)ccc2c1C(=O)Nc1ccc(N2CCOCC2)nc1: 0.91

(1) CNC(=O)c1c(C)sc2cc(Oc3ccnc4cc(C(=O)N5C[C@@H](O)[C@@H](O)C5)sc34)ccc12
(2) CNC(=O)c1c(C)sc2cc(Oc3ccnc4cc(C(=O)N5CC(O)C5)sc34)ccc12
(3) CCc1sc2cc(Oc3ccnc4cc(C(=O)N5CCC[C@H]5COC)sc34)ccc2c1C(=O)NC
Exercise: // ascending sort on recorded Ki Response field: labels, in requested order.
Key: 1, 2, 3
(1: 1.04 nM, 2: 1.57 nM, 3: 5.1 nM)

----------
Measured target: unphosphorylated VEGF-R2Δ50 (FLVK) (Homo sapiens, UniProt P35968, DEL940-989/E990V)
Construct: VEGF-R2Δ50 contains residues 806–939 and 990–1171; made in house; host or cells: baculovirus/insect cell system
Experiment description: VEGF-R2 coupled spectrophotometric assay, unphosphorylated VEGF-R2Δ50 (FLVK)
Assay type: biochemical
Test context: 50 nM compound; unphosphorylated VEGF-R2Δ50; read-out: FLVK (% inh @ 50 nM)
Value kind: inhibition at 0.05 µM (%)

1. Cc1c(C(=O)NC2CC2)c2ccc(Oc3ccnc4cc(-c5nccn5C)sc34)cc2n1C [Example 20]: 99
2. CNC(=O)c1c(C)oc2cc(Oc3ccnc4cc(C(=O)N5CCC5)sc34)ccc12 [Example 77]: 99
3. CCc1sc2cc(Oc3ccnc4cc(C(=O)N5CCC5)sc34)ccc2c1C(=O)NC [Example 138]: 85
4. Cc1oc2cc(Oc3ccnc4ccsc34)ccc2c1C(=O)Nc1ccc(N2CCOCC2)nc1 [Example 102]: 96
5. COC[C@@H]1CCCN1C(=O)c1cc2nccc(Oc3ccc4c(C(=O)NC5CC5)c(C)sc4c3)c2s1 [Example 120]: 93
6. COC[C@@H]1CCCN1C(=O)c1cc2nccc(Oc3ccc4c(C(=O)NCCCO)c(C)sc4c3)c2s1 [Example 122]: 58
7. Cc1c(C(=O)NCCCO)c2ccc(Oc3ccnc4cc(C(=O)N5CCCC5)sc34)cc2n1C [Example 65]: 65
8. CCc1sc2cc(Oc3ccnc4cc(-c5nccn5C)sc34)ccc2c1C(=O)NC [Example 134]: 94
9. Cc1oc2cc(Oc3ccnc4ccsc34)ccc2c1C(=O)NCCOC(C)C [Example 109]: 82
10. CCc1oc2cc(Oc3ccnc4cc(C(=O)N5CC[C@@H](OC)C5)sc34)ccc2c1C(=O)NC [Example 14]: 81
